// data source = the supplement of paper PMC9732359

Assay: protein stability index of a GFP-peptide fusion (yeast GPS) (PSI 1-4); higher = more stable; sorted into four equal gates, so the index is relative within each strain
Conditions: pdr5∆
assayEndpoint: protein stability index

Here are 10 sequences together with their reported answers.
INSERT INTO assay_data (entrysequence, observed) VALUES
  ('EIYTVEDRPPEYWAQRK [ISW2]', 3.14),
  ('VYKDNLSFIQVRIDLGT [RPO31]', 1.58),
  ('IAKPNTANAKHTSSNSR [SMB1]', 2.73),
  ('ILDTSQSESRQKRQLHD [SNU114]', 3.12),
  ('TFLKYFGWLLSDNSVSV [IRR1]', 2.4),
  ('EHKTPELISFKERTKSL [YIL149C/MLP2]', 2.95),
  ('HFAWLPTHIWNAKRSHM [POP1]', 1.67),
  ('PQKYVLHPQLHEVQYQE [SIN4]', 1.88),
  ('LQQKQRDLILKKGEYAR [SMC3]', 2.42),
  ('ILTKEVQGSTLAQLTSK [RPS1A]', 3);

Give a short answer stating reported protein stability index for AVVGNNMLLDPAANESE [RRP42] .
1.81

Give a short answer stating reported protein stability index for INIDDLLYELTAFKATV [YJL039C/NUP192] .
2.67

Give a short answer stating reported protein stability index for NHNGSALLIEVFTALLR [ITC1] .
1.38

Give a short answer stating reported protein stability index for LNDLVESSFIEIDDTEA [BRR2] .
2

====

Experiment: protein stability index of a GFP-peptide fusion (yeast GPS) (PSI 1-4); higher = more stable; sorted into four equal gates, so the index is relative within each strain
Settings: pdr5∆
assayEndpoint: protein stability index
Enter a number only.

INSERT INTO assay_data (entrysequence, observed) VALUES
  ('FAGVASKKVTSGVPRLK [RPO21]', 3.08),
  ('NMNLNPQMFLNQQAQAR [GAL11]', 2.42);

Give a short answer stating reported protein stability index for QAPKQRRRTYRAHGRIN [RPL17A] .
2.64

Give a short answer stating reported protein stability index for LLENSVDKNFDKLELYV [MTW1] .
2.64

====

Assay: protein stability index of a GFP-peptide fusion (yeast GPS) (PSI 1-4); higher = more stable; sorted into four equal gates, so the index is relative within each strain
Conditions: san1∆
assayEndpoint: protein stability index
Enter a number only.

INSERT INTO assay_data (entrysequence, observed) VALUES
  ('AESMCQELELPGEFVTA [SNF5]', 2.62);

Give a short answer stating reported protein stability index for QSYGGRPYGVGLLIIGY [PRE5] .
2.83

Give a short answer stating reported protein stability index for VLLHGASLGIGLAAMGS [RPN2] .
1.93

Give a short answer stating reported protein stability index for TSAASGDAAPAEEAAAE [RPP0] .
3.13

====

Assay: protein stability index of a GFP-peptide fusion (yeast GPS) (PSI 1-4); higher = more stable; sorted into four equal gates, so the index is relative within each strain
Settings: doa10∆
Attribute: protein stability index
Enter a number only.

INSERT INTO measurements (entrysequence, observed) VALUES
  ('MAQRTLKNKYESYDAAL [FAS2]', 3.15),
  ('TPSTEESRAQNVFGQDN [SWI3]', 2.58),
  ('NTHLGARNVQVHQEPYV [RPS0A]', 2.06),
  ('QDSIFQRIIADLSADKP [SRB8]', 2.63),
  ('FISAARYKPKSHLWEID [RPC37]', 3.02);

Give a short answer stating reported protein stability index for AKICALLFFNFSHSLTT [NUT1] .
1.43

Give a short answer stating reported protein stability index for FLTPMDSIDLAPNTLTN [YML103C/NUP188] .
1.51

Give a short answer stating reported protein stability index for ILKSLKNRSNRKRFHSQ [YOR098C/NUP1] .
3.08

Give a short answer stating reported protein stability index for VRELVEKIDGMDVDSVK [RPC82] .
2.99

Give a short answer stating reported protein stability index for ATPSAKEASQEDDNNNV [YLR335W/NUP2] .
2.57

Give a short answer stating reported protein stability index for QNEMIDAIAVTKGHGFE [RPL3] .
3.08

Give a short answer stating reported protein stability index for NKNGENKKIGKRPPEIM [SIR4] .
3.09

Give a short answer stating reported protein stability index for NNSNSNNNSSNEKEQLS [SEC65] .
2.77
